target: UniProt Q8NBP7; assay: BODIPY-LDL uptake assay in HepG2 cells; format: cell-based; conditions: 1 μM test compound, 5 μg/ml PCSK9, BODIPY-LDL
Observable: % increase in LDL Uptake (%)
Provide the reading as a plain figure in %.

Exam item: Looking for the measured % increase in LDL Uptake of O=C(c1cccc(C2(O)COC2)c1)N1CCC(c2ccccc2C(F)(F)F)CC1 [Example 122] , can you help?
Marked response: 0

Exam item: And the next one, O=C(c1ccc(C2(O)COC2)cc1)N1CC2=C(C1)CN(c1ccc(C(F)(F)F)cc1)C2 [Example 95] ?
Marked response: 19

Exam item: And the next one, COC1(c2ccc(C(=O)N3CCC(c4ccc(C(F)(F)F)cc4)CC3)cc2)CCN(C(C)=O)CC1 [Example 158] ?
Marked response: 0

Exam item: And the next one, O=S(=O)(c1ccc(C2(O)COC2)cc1)N1CC2CN(c3ccc(C(F)(F)F)cc3)CC2C1 (centres unmarked) [Example 98] ?
Marked response: 0

Exam item: And the next one, O=C(Nc1ccc(C2(O)COC2)cc1)C1CCN(c2ccc(C(F)(F)F)cc2)CC1 [Example 3] ?
Marked response: −2

Exam item: And the next one, CCOC1(c2ccc(C(=O)N3CCC(c4ccc(C(F)(F)F)cc4)CC3)cc2)COC1 [Example 43] ?
Marked response: 0

Exam item: And the next one, OC1(c2ccc(N3CCC(c4ccc(C(F)(F)F)cc4)CC3)cc2)COC1 [Example 8] ?
Marked response: 0

Exam item: And the next one, O=C(c1ccc(C2(OCC3CC3)COC2)cc1)N1CCC(c2ccc(C(F)(F)F)cc2)CC1 [Example 46] ?
Marked response: 28

Exam item: And the next one, COC1(c2ccc(C(=O)N3CCC(c4ccc(C(F)(F)F)c(-n5cnc(C)c5)c4)CC3)cc2)COC1 [Example 108] ?
Marked response: 9

Exam item: And the next one, COC1(c2ccc(C(=O)N3CCCN(c4ccc(C(F)(F)F)cc4)CC3)cc2)COC1 [Example 185] ?
Marked response: 0

Exam item: And the next one, COC1(c2ccc(C(=O)N3CCCC(c4ccc(C(F)(F)F)cc4)C3)cc2)COC1 (centres unmarked) [Example 39] ?
Marked response: 26

Exam item: And the next one, O=C(c1ccc(C2(O)COC2)cc1)N1CCN(c2ccc(C(F)(F)F)cc2)CC1 [Example 6] ?
Marked response: 0

Exam item: And the next one, COC1(c2ccc(C(=O)N3CCC(c4ccc(C(F)(F)F)c(F)c4)CC3)cc2)COC1 [Example 38] ?
Marked response: 43

Exam item: And the next one, O=C(c1ccc(C2(O)COC2)cc1)N1CCCN(c2ccc(C(F)(F)F)cc2)CC1 [Example 184] ?
Marked response: 19

Exam item: And the next one, COC1(c2cccc(C(=O)N3CCC(c4ccc(C(F)F)cc4)CC3)c2)COC1 [Example 65] ?
Marked response: 0

Exam item: And the next one, COC1(c2ccc(NC(=O)N3CCC(c4ccc(C(F)(F)F)cc4)CC3)cc2)COC1 [Example 5] ?
Marked response: 41

Exam item: And the next one, O=C(c1ccc(C2(OCC3CC3)COC2)cc1)N1CC2CN(c3ccc(C(F)(F)F)cc3)CC2C1 (centres unmarked) [Example 133] ?
Marked response: 22

Exam item: And the next one, COC1(c2ccc(C(=O)N3CC4=C(C3)CN(c3ccc(C(F)(F)F)cc3)C4)cc2)COC1 [Example 202] ?
Marked response: 16

Exam item: And the next one, O=C(c1ccc(C2(O)COC2)cc1)N1CCC(c2ccc(C(F)(F)F)cn2)CC1 [Example 212] ?
Marked response: 8

Exam item: And the next one, O=C(c1ccc(C2(O)COC2)cc1)N1CC2CC(O)(c3ccc(C(F)(F)F)cc3)CC2C1 (centres unmarked) [Example 105] ?
Marked response: 92

Exam item: And the next one, COC1(c2ccc(NC(=O)N3CC4CN(c5ccc(C(F)(F)F)cc5)CC4C3)cc2)COC1 (centres unmarked) [Example 74] ?
Marked response: 34

Exam item: And the next one, O=C(O)c1cc(C2(O)COC2)ccc1N1CCC(c2ccc(C(F)(F)F)cc2)CC1 [Example 77] ?
Marked response: 0

Exam item: And the next one, O=C(c1ccc(C2(O)CCNC2)cc1)N1CCC(c2ccc(C(F)(F)F)cc2)CC1 (centres unmarked) [Example 152] ?
Marked response: 0

Exam item: And the next one, O=C(c1cccc(C2(O)COC2)c1)N1CCC2(CC1)CCN(c1ccc(C(F)(F)F)cc1)CC2 [Example 100] ?
Marked response: 29

Exam item: And the next one, CC(C)(C)OC(=O)N1CCC(O)(c2ccc(C(=O)N3CCC(c4ccc(C(F)(F)F)cc4)CC3)cc2)C1 (centres unmarked) [Example 151] ?
Marked response: 34

Exam item: And the next one, COC1(c2ccc(C(=O)N3CCC(c4ccc(C(F)(F)F)cc4)CC3)cc2)CCNCC1 [Example 144] ?
Marked response: 1

Exam item: And the next one, COc1cc(C2CN(c3ccc(C(F)(F)F)cc3)CCN2C(=O)c2ccc(C3(O)COC3)cc2)ccn1 (centres unmarked) [Example 67] ?
Marked response: 26

Exam item: And the next one, OC1(c2cc(N3CCOCC3)cc(N3CCC(c4ccc(C(F)(F)F)cc4)CC3)c2)COC1 [Example 84] ?
Marked response: 6

Exam item: And the next one, O=C(c1cccc(C2(O)COC2)c1)N1CCC(c2ccc(C(F)(F)F)cc2)CC1 [Example 47] ?
Marked response: 17

Exam item: And the next one, CCOC1(c2ccc(C(=O)N3CC4=C(C3)CN(c3ccc(C(F)(F)F)cc3)C4)cc2)COC1 [Example 104] ?
Marked response: 1

Exam item: And the next one, CC#CCOC1(c2ccc(C(=O)N3CCC(c4ccc(C(F)(F)F)cc4)CC3)cc2)COC1 [Example 70] ?
Marked response: 0

Exam item: And the next one, CC(C)COC1(c2ccc(C(=O)N3CCC(c4ccc(C(F)(F)F)cc4)CC3)cc2)COC1 [Example 45] ?
Marked response: 19

###

So I've got a bunch of compounds here, and I need their % increase in LDL Uptake values.
molecular target: PCSK9 (Homo sapiens); experiment: BODIPY-LDL uptake assay in HepG2 cells; type: cell-based; details: 30 μM test compound, 5 μg/ml PCSK9, BODIPY-LDL
Provide the reading as a plain figure in %.

Exam item: Looking for the measured % increase in LDL Uptake of COC1(c2cccc(C(=O)N3CC4=C(C3)CN(c3ccc(C(F)(F)F)cc3)C4)c2)COC1 , can you help?
Marked response: 24

Exam item: And the next one, O=C(c1ccc(C2(O)CS(=O)(=O)C2)cc1)N1CCC(c2ccc(C(F)(F)F)cc2)CC1 ?
Marked response: 17

Exam item: And the next one, O=C(c1ccc(C2(O)COC2)cc1)N1CCN(c2ccc(C(F)(F)F)cn2)CC1 ?
Marked response: 189

Exam item: And the next one, OC1(c2cc(N3CCOCC3)cc(N3CCC(c4ccc(C(F)(F)F)cc4)CC3)c2)COC1 ?
Marked response: 17

Exam item: And the next one, COC1(c2ccc(NC(=O)N3CCC(c4ccc(C(F)(F)F)cc4)CC3)cc2)COC1 ?
Marked response: 72

Exam item: And the next one, COC1(c2ccc(C(=O)N3CCC(c4ccc(C(F)(F)F)cc4)CC3)cc2)COC1 ?
Marked response: 172

Exam item: And the next one, CCOC1(c2ccc(C(=O)N3CCCC(c4ccc(C(F)(F)F)cc4)C3)cc2)COC1 (centres unmarked) ?
Marked response: 30

Exam item: And the next one, O=C(c1ccc(C2(O)COC2)cc1)N1CCC(c2cc(F)cc(C(F)(F)F)c2)CC1 ?
Marked response: 122

###

molecular target: PCSK9 (Homo sapiens, UniProt Q8NBP7); assay: BODIPY-LDL uptake assay in HepG2 cells; type: cell-based; conditions: 30 μM test compound, 5 μg/ml PCSK9, BODIPY-LDL
Sequence (Q8NBP7 153-692): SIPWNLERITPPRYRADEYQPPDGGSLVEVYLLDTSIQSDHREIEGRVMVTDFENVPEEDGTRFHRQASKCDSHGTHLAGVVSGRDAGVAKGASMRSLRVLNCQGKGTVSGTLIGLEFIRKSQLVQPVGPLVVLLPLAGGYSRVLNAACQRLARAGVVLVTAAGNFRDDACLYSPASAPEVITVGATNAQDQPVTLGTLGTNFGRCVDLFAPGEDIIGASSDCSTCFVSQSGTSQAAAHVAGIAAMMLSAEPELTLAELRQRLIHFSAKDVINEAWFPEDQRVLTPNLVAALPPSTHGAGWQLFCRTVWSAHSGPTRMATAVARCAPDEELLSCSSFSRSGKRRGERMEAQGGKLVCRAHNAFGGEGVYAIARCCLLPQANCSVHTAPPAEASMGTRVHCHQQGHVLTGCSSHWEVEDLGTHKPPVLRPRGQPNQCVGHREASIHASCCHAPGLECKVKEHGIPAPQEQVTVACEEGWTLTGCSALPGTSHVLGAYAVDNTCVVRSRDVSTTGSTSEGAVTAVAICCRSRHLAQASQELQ
So I've got a bunch of molecules here, and I need their % increase in LDL Uptake values.
Provide the reading as a plain figure in %.

Exam item: Looking for the measured % increase in LDL Uptake of Cc1ccc(C2CCN(C(=O)c3ccc(C4(O)COC4)cc3)CC2)cc1Cl , can you help?
Marked response: 49

Exam item: And the next one, COC1(c2ccc(C(=O)N3CCC(c4ccc(C(F)(F)F)cc4)CC3)cc2)CCOCC1 ?
Marked response: 28

Exam item: And the next one, O=C(c1ccc(C2(O)COC2)cc1)N1CCC(O)(c2ccc(C(F)(F)F)cc2)CC1 ?
Marked response: 55

Exam item: And the next one, O=C(Nc1ccc(C2(O)COC2)cc1)N1CCC(c2ccc(C(F)(F)F)cc2)CC1 ?
Marked response: 77

Exam item: And the next one, O=C(c1ccc(C2(OCC3CC3)COC2)cc1)N1CCC(c2ccc(C(F)(F)F)cc2)CC1 ?
Marked response: 34

Exam item: And the next one, O=C(c1ccc(C2(O)COC2)cc1)N1CCC(c2ccc(O)cc2)CC1 ?
Marked response: 0

Exam item: And the next one, COC1(c2ccc(C(=O)N3CCN(c4ccc(C(F)(F)F)cc4)CC3)cc2)COC1 ?
Marked response: 129

Exam item: And the next one, O=C(c1ccc(C2(O)CCNC2)cc1)N1CCC(c2ccc(C(F)(F)F)cc2)CC1 (stereo not drawn) ?
Marked response: 31

Exam item: And the next one, CCOC1(c2cccc(C(=O)N3CC4CN(c5ccc(C(F)(F)F)cc5)CC4C3)c2)COC1 (stereo not drawn) ?
Marked response: 47

Exam item: And the next one, COC1(c2cccc(C(=O)N3CC4CN(c5ccc(C(F)(F)F)cc5)CC4C3)c2)COC1 (stereo not drawn) ?
Marked response: 257

Exam item: And the next one, O=C(c1ccc(C2(O)COC2)cc1)N1CCC(c2ccc(C(F)(F)F)cn2)CC1 ?
Marked response: 48

Exam item: And the next one, COC1(c2ccc(C(=O)N3CCC(c4ccc(C(F)F)cc4)CC3)cc2)COC1 ?
Marked response: 51

Exam item: And the next one, CCOC1(c2ccc(C(=O)N3CC4CN(c5ccc(C(F)(F)F)cc5)CC4C3)cc2)COC1 (stereo not drawn) ?
Marked response: 43

Exam item: And the next one, CC(C)COC1(c2ccc(C(=O)N3CC4CN(c5ccc(C(F)(F)F)cc5)CC4C3)cc2)COC1 (stereo not drawn) ?
Marked response: 47

Exam item: And the next one, O=C(Nc1ccc(C2(O)COC2)cc1)N1CC2CN(c3ccc(C(F)(F)F)cc3)CC2C1 (stereo not drawn) ?
Marked response: 27

Exam item: And the next one, [2H]C([2H])([2H])OC1(c2ccc(C(=O)N3CC4CN(c5ccc(C(F)(F)F)cc5)CC4C3)cc2)COC1 (stereo not drawn) ?
Marked response: 43

Exam item: And the next one, O=C(c1cccc(C2(OCC3CC3)COC2)c1)N1CC2CN(c3ccc(C(F)(F)F)cc3)CC2C1 (stereo not drawn) ?
Marked response: 26

Exam item: And the next one, O=C(c1ccc(C2(O)COC2)cc1)N1CCCC(c2ccc(C(F)(F)F)cc2)C1 (stereo not drawn) ?
Marked response: 252

Exam item: And the next one, OC1(c2ccc(-c3nc(-c4ccc(C(F)(F)F)c(F)c4)no3)cc2)COC1 ?
Marked response: 19

Exam item: And the next one, O=C(c1ccc(C2(O)COC2)cc1)N1CCC(c2ccc(C(F)(F)F)c(Cl)c2)CC1 ?
Marked response: 33

Exam item: And the next one, O=C(c1ccc(C2(O)CCOCC2)cc1)N1CCC(c2ccc(C(F)(F)F)cc2)CC1 ?
Marked response: 16

Exam item: And the next one, O=C(c1cccc(C2(O)COC2)c1)N1CCC(c2ccc(C(F)(F)F)cc2)CC1 ?
Marked response: 383

Exam item: And the next one, COC1(c2ccc(C(=O)N3CC4CN(c5ccc(C(F)(F)F)nc5)CC4C3)cc2)COC1 (stereo not drawn) ?
Marked response: 127

Exam item: And the next one, CCOC1(c2ccc(C(=O)N3CC4CN(c5ccc(C(F)(F)F)cc5)CC4C3)cc2)CSC1 (stereo not drawn) ?
Marked response: 25

Exam item: And the next one, O=C(c1ccc(C2(O)COC2)cc1)N1CCC(c2ccc(C(F)F)cc2)CC1 ?
Marked response: 76

Exam item: And the next one, O=C(c1ccc(C2(O)COC2)cc1)N1CC2CN(c3ccc(C(F)(F)F)nc3)CC2C1 (stereo not drawn) ?
Marked response: 140

Exam item: And the next one, O=C(c1ccc(C2(OCC3CC3)COC2)cc1)N1CC2CN(c3ccc(C(F)(F)F)cc3)CC2C1 (stereo not drawn) ?
Marked response: 32

Exam item: And the next one, OC1(c2ccc(N3CCC(c4ccc(C(F)(F)F)cc4)CC3)cc2)COC1 ?
Marked response: 114

Exam item: And the next one, COC1(c2ccc(C(=O)N3CCC(c4ccc(C(F)(F)F)cc4)CC3)cc2)CCN(C(C)=O)CC1 ?
Marked response: 0

Exam item: And the next one, COc1ccc(C2CCN(C(=O)c3ccc(C4(O)COC4)cc3)CC2)cc1Cl ?
Marked response: 33

Exam item: And the next one, Cc1ccc(C2=CC3CN(C(=O)c4ccc(C5(O)COC5)cc4)CC3C2)cc1 (stereo not drawn) ?
Marked response: 74

Exam item: And the next one, COC1(c2ccc(C(=O)N3CCC(c4ccc(C(F)(F)F)c(F)c4)CC3)cc2)COC1 ?
Marked response: 25

Exam item: And the next one, O=C(c1ccc(C2(O)COC2)cc1)N1CCCN(c2ccc(C(F)(F)F)cc2)CC1 ?
Marked response: 250

These measurements were taken from patent US20230089247A1.
